# Test system: Plasmodium falciparum
# method_notes: Confirmatory screen in NF54 nanoGlo assay, in single point, at 2uM, 72h
# Type: functional, Erythrocyte
# study_conditions: timepoint 72 hour
The campaign covered roughly 4,800 compounds. About 420 (8.8%) showed an effect of 50% or more. The entries come from a sample that favours strong results as a whole.
Threshold rule: % Inhibition greater than or equal to 30% is condition met; below that, condition not met.

{"compound": "CCOc1ccc2nc(N3CCC(N4CCC([C@H](O)c5cccnc5)CC4)CC3)nc(C)c2c1", "tgt": "Plasmodium falciparum", "answer_label": "condition not met"}
{"compound": "O=C(Nc1cnc2c(c1)COCC2)c1cc2c(OC(F)(F)F)cccc2[nH]1", "tgt": "Plasmodium falciparum", "answer_label": "condition met"}
{"compound": "CCCN1CCC(N2CC(c3cccnc3)C(c3nc(C4CCCC4)no3)C2)CC1 (stereo not given)", "tgt": "Plasmodium falciparum", "answer_label": "condition not met"}

Please tell me: is the compound CCN1C[C@H](Nc2nc(C)nc3sccc23)[C@@H](OC)C1 at or over 30% in terms of % Inhibition?
condition met

Please tell me: is the compound CCOc1ccc2nc(CN(CC)CC3CCN(C4CCN(C)CC4)CC3)ccc2c1 at or over 30% in terms of % Inhibition?
condition met
